Sourced from PubChem BioAssay (NCATS)

Listing of recorded Potency by entry.
Assay: Quantitative highthroughput screen to assess conditional lethalithy of P12 Ichikawa cells grown in RPMI1640 with untreated serum (RPMI+s) (AID 1963881); further: potency means the concentration at half of the fitted maximal effect; nearly all actives have a fitted effect of over 35% in size
Details: ATP luminescence, 48 h; viability; series mostly up to 45.8 µM
Method: Assay Provider: Jason Cantor Ph.D. Department of Biochemistry University of Wisconsin-Madison, Madison, WI, USA Chemical screening studies have identified drug sensitivities across hundreds of cancer cell lines but most putative therapeutics fail to translate. […] Sets of conditional anticancer compounds spanned phases of clinical development and included non-oncology drugs were assessed. […] 6; Detection; Luminescence, Viewlux PerkinElmer. […]
Results filed as inconclusive are left out. Active and inactive are the calls of the source. The call rests on the fitted dose curve; in most records, active means well fitted cell-killing curve with a large enough effect; inconclusive means small, poorly fitted or top-dose-only effect; inactive means flat fitted curve, though single readings scatter.

INSERT INTO results (compound, quantity, measurement) VALUES
  ('COc1ccc(Nc2cc(-c3cnc(N)nc3)nc(N3CCOCC3)n2)cn1', 'Potency', '2.35 µM (active)'),
  ('CC(C)(C)c1nc(-c2cccc(NS(=O)(=O)c3c(F)cccc3F)c2F)c(-c2ccnc(N)n2)s1', 'Potency', '2.96 µM (active)');

Next up:
The molecule identified as O=C(Nc1ccc(OC(F)(F)F)cc1)c1sccc1NCc1ccnc2ccccc12 registered its Potency at 2.35 µM (active)

---

assay: Viability qHTS for spleen associated tyrosine kinase inhibitor (SYKi) naive MV4-11 cells (AID 1963823); conditions: MV4-11 AML viability, CellTiter-Glo luminescence, 72 h; series mostly up to 45 µM; further: nearly all actives have a fitted effect of over 40% in size; further: potency means the concentration at half of the fitted maximal effect
Results filed as inconclusive are left out. The source made the active and inactive calls. The call rests on the fitted dose curve; in most records, active means well fitted cell-killing curve with a large enough effect; inconclusive means small, poorly fitted or top-dose-only effect, or effect the other way; inactive means no such curve, though single readings can be large or run the other way.
quantity: Potency

INSERT INTO assay_data (compound, quantity, measurement) VALUES
  ('CNC(=O)c1cc(Oc2ccc(NC(=O)Nc3ccc(Cl)c(C(F)(F)F)c3)c(F)c2)ccn1', 'Potency', '296 nM (active)'),
  ('C[C@H]1COc2c(C3(N)CC3)c(F)cc3c(=O)c(C(=O)O)cn1c23', 'Potency', 'inactive'),
  ('CCC1C(=O)N(C)c2cnc(Nc3ccc(C(=O)NC4CCC(N5CCN(CC6CC6)CC5)CC4)cc3OC)nc2N1C(C)C (configuration not stated)', 'Potency', '25.9 nM (active)'),
  ('C=C1C(=O)O[C@@H]2/C=C(\CO)CC/C=C(\CO)[C@H](OC(C)=O)C(OC(=O)C(C)CC)C12 (some centres not stated)', 'Potency', '5020 nM (active)');

# Potency of Cc1ccc(CN2CCNCC2)cc1NC(=O)CNc1ccc(F)c(F)c1 = inactive

Briefly, Potency measured for COC(=O)C1=COC(O[C@@H]2O[C@H](CO)[C@@H](O)[C@H](O)[C@H]2O)C2C(C)C(=O)CC12 (some centres not stated) : inactive

Record COc1cc2c3cc1Oc1cc(ccc1O)C[C@@H]1c4c(cc(OC)c(O)c4Oc4ccc(cc4)C[C@@H]3N(C)CC2)CC[N+]1(C)C , field Potency: inactive

Entry COc1c(C)cnc(Cn2cc(C#CCC(C)(C)O)c3c(Cl)nc(N)nc32)c1C ; Potency = 11.6 nM (active)

Please fill in: Potency reported for Cc1ccccc1-n1c(Cn2nc(-c3cccc(O)c3)c3c(N)ncnc32)nc2cccc(C)c2c1=O = 6610 nM (active)

---

test: Quantitative highthroughput screen to assess conditional lethalithy of SEM cells grown in RPMI1640 with dialyzed fetal bovine serum (RPMI+ds) (AID 1963884); conditions: SEM B-ALL cells, RPMI+dialyzed FBS, CellTiter-Glo viability, 48 h; series mostly up to 45.8 µM; further: nearly all actives have a fitted effect of over 35% in size;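 on viability: 100% = DMSO control wells and 0% = empty wells without cells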
Records with an inconclusive call do not appear. Activity calls are given as the source filed them. The call rests on the fitted dose curve; in most records, active means well fitted cell-killing curve with a large enough effect; inconclusive means small, poorly fitted or top-dose-only effect, or effect the other way; inactive means no such curve, though single readings can be large or run the other way. Peptide text beside a SMILES is read from it.
// one of 1 for active, 0 for inactive, no free text

Observe how each entry below is paired with its result.
INSERT INTO results (compound, class) VALUES
  ('COC(=O)[C@H](Cc1ccccc1)NC(=O)[C@@H](N)CC(=O)O (H-Asp-Phe-OMe)', 0),
  ('c1nc2nc(Nc3ccc(N4CCOCC4)cc3)nc(NC3CCCCC3)c2[nH]1', 1),
  ('O=c1[nH]cnc2c1ncn2[C@H]1CC[C@@H](CO)O1', 0),
  ('NCCS(=O)(=O)O', 0),
  ('CCOc1ccccc1OCCNC(C)Cc1ccc(OC)c(S(N)(=O)=O)c1 (centres undefined)', 0),
  ('NCCCCNCCCN', 1);

Query block: Which outcome was entered for the compound CN(C)c1ccccc1CN1CCCN(Cc2ccccc2N(C)C)C1c1ccncc1 in this test?
Result block: 0

Query block: Check the results log: what was the call for O=C(NCC1CN(c2ccc(N3CCOCC3=O)cc2)C(=O)O1)c1ccc(Cl)s1 (centres undefined) ?
Result block: 0

Query block: Fill in: this test's call for CCC(CC)[C@H](NC(C)=O)[C@@H]1[C@H](O)[C@@H](C(=O)O)C[C@@H]1N=C(N)N is ___
Result block: 0

Query block: Check the results log: what was the call for CS(=O)(=O)c1ccc(C(=O)Nc2ccc(Cl)c(-c3ccccn3)c2)c(Cl)c1 ?
Result block: 0
